- testSummary: NCI Yeast Anticancer Drug Screen. Data for the bub3 strain (AID 167)
- reportedConditions: S. cerevisiae bub3 mutant strain, at 33.0 µM, active compounds read high
About 79,000 compounds went through this panel and 15% of them were active in at least one assay; those are over-represented in the sample as a whole.
Outcome: Met for growth inhibition of at least 40%; Not met for anything lower.

# example entries with known answers
Data request: Does the reported growth inhibition for `COc1ccc2[nH]cc([C@@H]3C4CCC(C4)[C@H]3NCc3cccc(CN[C@H]4C5CCC(C5)[C@@H]4c4c[nH]c5ccc(OC)cc45)c3)c2c1` fall at or above the 40% mark?
Data returned: Met

Data request: And the next one, `Nc1ccc2c(c1)C(=O)c1ccc(F)cc1-2` ?
Data returned: Not met

Data request: Same again, this time with `CSc1nc(C)c(CCOC(C)=O)c(N=P(c2ccccc2)(c2ccccc2)c2ccccc2)n1`
Data returned: Not met

Data request: And for `Cc1cc(N(CCOS(C)(=O)=O)CCOS(C)(=O)=O)ccc1C=Nc1ccc(-c2nc(Cc3ccccc3)sc2C)cc1` ?
Data returned: Met

Data request: Similarly, `O=C(/C=C/c1cc(Cl)cc(Cl)c1O)c1cccc(O)c1` ?
Data returned: Met

Data request: Likewise for `Cc1cc(C)nc(NS(=O)(=O)c2ccc(Nc3c4ccccc4nc4c(C(=O)NCCO)cccc34)cc2)n1` ?
Data returned: Not met

Others:
Data request: Determine whether this compound has growth inhibition no lower than 40%: `CCCC(=O)Oc1ccc(/C=N/NC(N)=S)nc1`
Data returned: Not met
